These measurements were taken from paper PMC8222333.

# TESTED SYSTEM: d-enCas12a (Acidaminococcus sp., UniProt U2UMQ6 1-1307, E174R;S542R;K548R;D908A;E993A;D1235A)
# EXPERIMENT SUMMARY: Spec-seq (native PAGE EMSA with sequencing of bound and unbound); 25 mM Tris-HCl pH 7.4, 150 mM KCl, 5 mM MgCl2, 10% glycerol, 1 mM DTT, 40 ng/uL salmon sperm DNA; 400 nM Cas12a, 480 nM crRNA, 50 nM library, 37 C 1 h; native PAGE at room temperature; high values mean tight binding;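 note: relative affinity from the bound to unbound sequence frequency ratio in Spec-seq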
# EXPERIMENTAL CONTEXT: protein: recombinant
PROPERTY NAME: binding signal (lnKA)
A number alone suffices; assume lnKA.

BINDER	PROPERTY NAME	UNIT ABBREVIATION	ASSAY RESULT
TACA (dsDNA) DNA 1: GCTATCTAGTGCTCAGTACGCACTGTACAAGGAAACTTCTGGCAGGACCAGGTCATGAGATCGGAAGAGCACACGTCTGAACTCCAGTCA DNA 2: TGACTGGAGTTCAGACGTGTGCTCTTCCGATCTCATGACCTGGTCCTGCCAGAAGTTTCCTTGTACAGTGCGTACTGAGCACTAGATAGC RNA: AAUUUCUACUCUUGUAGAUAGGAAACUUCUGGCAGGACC	binding signal	lnKA	-1.33

Which binding signal value belongs to CGGG (dsDNA) DNA 1: GCTATCTAGTGCTCAGTACGCACTGCGGGAGGAAACTTCTGGCAGGACCAGGTCATGAGATCGGAAGAGCACACGTCTGAACTCCAGTCA DNA 2: TGACTGGAGTTCAGACGTGTGCTCTTCCGATCTCATGACCTGGTCCTGCCAGAAGTTTCCTCCCGCAGTGCGTACTGAGCACTAGATAGC RNA: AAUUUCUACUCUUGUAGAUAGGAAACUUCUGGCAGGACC ?
-6.24
